Entries annotated with measured survival
System: DeltatarO mutant
Test: S. aureus survival, RN4220 and DeltatarO strains – OD600, teichoic acid synthesis inhibitors, primary screen (AID 463173)
Measurement context: S. aureus RN4220 wild type/DeltatarO growth, OD600, 18 h, hits give low values, screened at 18.75 µg/mL (by protocol)
In all, about 52,000 compounds went through this assay and about 4,300 (8.3%) were called active. This excerpt belongs to a sample that is enriched for actives.
Endpoint label: survival (%)

> print(dat)
                                    compound  data.value
 1  CCSc1ncc(Cl)c(C(=O)Nc2sc(C(C)=O)c(C)c2C(=O)OC)n1          72
 2  Cc1cccc(N2CCN(C(c3nnnn3C3CCCC3)C(C)C)CC2)c1C (stereo unspecified)          79
 3                    O=C(O)CCSc1nc2ccccc2o1          87
 4  CCOC(=O)c1ccc(NC(=O)C(C)N(c2ccc(OCC)cc2)S(C)(=O)=O)cc1 (stereo unspecified)          62
 5  CCC(C)NC(=O)c1c(C)oc2ncn(CC(C)C)c(=O)c12 (stereo unspecified)          79
 6      Cc1ccc(OCc2cc(=O)n3cc(C)sc3n2)c(C)c1          59
 7  O=C(Nc1ccccc1)c1ccc(S(=O)(=O)N2CCCC2)cc1          94
 8  Cc1ccccc1OCCSc1nc2ccc(NC(=O)c3cccc(F)c3)cc2s1         100
 9  CCOC(=O)c1ccc(N2C(=O)c3n[nH]c(-c4ccco4)c3C2c2ccc(O)c(OCC)c2)cc1 (stereo unspecified)          69
10  COc1ccccc1NC(=O)Cn1c(=O)n(CC(=O)NCc2ccccc2Cl)c(=O)c2sccc21         172
11  Cc1oc(C)c2c(=O)cc(-c3ccc4c(c3)OCO4)cc(OC(=O)c3ccccc3Br)c12         106
12  Cc1noc(/C=C/c2ccco2)c1S(=O)(=O)N1CCC(C(=O)Nc2ccc(F)c(Cl)c2)CC1         100
13    O=S1(=O)c2ccccc2N(Cc2ccccc2F)c2ccccc21          92
14  Cc1nn(C(=O)c2cccc(Cl)c2)c(C)c1S(=O)(=O)N1CCOCC1          82
15  COc1ccc(C)cc1NC(=O)c1ccc2c(=O)n3c(nc2c1)CCCCC3          65
16  COCCNC(=O)C1CC(=O)N(c2ccc(C)cc2)C1 (stereo unspecified)          82
17   CCNC(=O)c1ccc(NC(=O)N2CCCCc3ccccc32)cc1         102
18  CCn1cc(C(=O)NCc2ccccc2Cl)c(=O)c2cc(S(=O)(=O)N3CCOCC3)ccc21          75
19  COc1ccc(NC(=O)CCNS(=O)(=O)c2ccc3c(c2)CCCC(=O)N3)cc1         101
20  COc1cc(C2c3c(oc4ccc(C)cc4c3=O)C(=O)N2Cc2ccccc2)ccc1O (stereo unspecified)         113
21  Cc1ccc(NC(=O)C2CCCN2S(=O)(=O)c2cccc3nsnc23)c(C)c1 (stereo unspecified)          78

---

Test system: DeltatarO mutant
Test: S. aureus survival, RN4220 and DeltatarO strains – OD600, teichoic acid synthesis inhibitors, primary screen (AID 463173)
Measurement context: S. aureus RN4220 wild type/DeltatarO growth, OD600, 18 h, hits give low values, screened at 18.75 µg/mL (by protocol)
Hit rate of the full screen: of about 52,000 compounds, about 4,300 (8.3%) were called active. Many of the other results were omitted from the sample, so actives are more common in it than they were.
Endpoint label: survival (%)

> print(dat)
                                    compound  data.value
 1  O=c1c2cc3c(cc2nc2sc(Nc4cccc([N+](=O)[O-])c4)nn12)OCO3         123
 2  CCCCN(CCCC)CCCNC(=O)c1ccc2nc(N3CCCCC3)sc2c1         102
 3  CCc1ccccc1NC(=O)C1CCCN(S(=O)(=O)c2ccc3[nH]c(=O)ccc3c2)C1 (stereo not given)          88
 4  COc1ccc(C(=O)Nc2ccc(-c3cc4ccccc4oc3=O)c(C)c2)cc1OC          69
 5  CCC(C)OC(=O)/C(C#N)=C\c1ccc(-c2ccccc2Cl)o1 (stereo not given)          58
 6  COc1cccc(C(=O)Nc2cccc(OCc3cc(=O)n4c5c(sc4n3)CCCC5)c2)c1          51
 7  CCOC(=O)/C(C#N)=C/c1ccc(-c2ccc(Br)cc2)o1          81
 8  Cc1ccccc1C(=O)Nc1cccc(OCc2cc(=O)n3c4c(sc3n2)CCCC4)c1         101
 9  Cc1csc2nc(COc3cccc(NC(=O)c4ccccc4F)c3)cc(=O)n12         123
10     Clc1nc(Cl)nc(OCCCOc2nc(Cl)nc(Cl)n2)n1          94

---

Test system: DeltatarO mutant
Test: S. aureus survival, RN4220 and DeltatarO strains – OD600, teichoic acid synthesis inhibitors, primary screen (AID 463173)
Measurement context: S. aureus RN4220 wild type/DeltatarO growth, OD600, 18 h, screened at 18.75 µg/mL (by protocol)
The whole screen tested about 52,000 compounds, of which about 4,300 (8.3%) were called active. Rule as the data show it: active = survival mostly below about 52% (no sharp cut-off); inactive = mostly above about 56%. The full list was thinned out, with actives kept by preference.
Labels: active, inactive

> print(dat)
                                    compound      assay.system     class
 1  N#C/C(=C\c1ccc(OCc2ccc(Cl)cc2Cl)cc1)c1nc2ccccc2[nH]1  DeltatarO mutant  inactive
 2  Cc1ccc(-n2nc(C(=O)Nc3cccc(C#N)c3)c3c4ccccc4n(C)c3c2=O)cc1  DeltatarO mutant  inactive
 3  CC(=O)NCCNC(=O)CCCc1nnc2n(C)c(=O)c3sccc3n12  DeltatarO mutant  inactive
 4  Cc1ccc(CNC(=O)CCCn2c(=O)[nH]c3ccc(Br)cc3c2=O)cc1  DeltatarO mutant  inactive
 5  COc1ccc(N2CC(NC(=O)c3ccc(Br)o3)CC2=O)cc1 (configuration not stated)  DeltatarO mutant  inactive
 6  CCOc1cccc2cc(-c3cn4c(n3)sc3ccccc34)c(=O)oc12  DeltatarO mutant  inactive
 7  COc1cccc2cc(-c3cn4c(n3)sc3cc(F)ccc34)c(=O)oc12  DeltatarO mutant  inactive
 8  CCOC(=O)c1cc2c(=O)n3ccccc3nc2n(Cc2ccco2)c1=NC(=O)c1cc(C)cc(C)c1  DeltatarO mutant    active
 9  CN(C(=O)CSc1nc2ccc(NC(=O)c3ccccc3F)cc2s1)c1ccccc1  DeltatarO mutant  inactive
10  Cc1ccc(N2CC(NC(=O)Cc3cccs3)CC2=O)cc1C (configuration not stated)  DeltatarO mutant    active
11  CC1CCN(S(=O)(=O)c2ccc(NC(=O)CSc3nnnn3C)cc2)CC1  DeltatarO mutant  inactive
12  COc1ccc(CCNC(=O)CCCn2c(=O)c3ccccc3n(Cc3cccc(Cl)c3)c2=O)cc1OC  DeltatarO mutant  inactive
13  CCc1ccc(NC(=O)c2oc3c(c2C)-c2[nH]ncc2CC3)cc1  DeltatarO mutant  inactive
14  CCN(CC)CC(=O)Nc1ccc(-c2ccc(NC(=O)CN(CC)CC)cc2)cc1  DeltatarO mutant  inactive
15  Cc1ccc(N2CC(NC(=O)Cc3cccs3)CC2=O)cc1 (configuration not stated)  DeltatarO mutant    active
16  CCOc1cccc2cc(-c3cn4c(n3)sc3cc(C)ccc34)c(=O)oc12  DeltatarO mutant    active
17  O=C(NC1CC(=O)N(c2ccccc2)C1)c1ccc(Br)o1 (configuration not stated)  DeltatarO mutant  inactive
18     Cn1c(=O)n(C)c2cc(CNCc3ccc(F)cc3)ccc21  DeltatarO mutant  inactive
19  Cc1ccc(N2CC(NC(=O)c3ccc(Br)o3)CC2=O)cc1C (configuration not stated)  DeltatarO mutant    active
20  Cc1cccn2cc(-c3cccc(NS(=O)(=O)c4ccc(Cl)c(Cl)c4)c3)nc12  DeltatarO mutant  inactive
21  Cc1cc(NC(=O)c2oc3c(c2C)-c2[nH]ncc2CC3)ccc1Br  DeltatarO mutant    active
22  Cc1cc(C)c(NC(=O)c2oc3c(c2C)-c2[nH]ncc2CC3)c(C)c1  DeltatarO mutant  inactive

---

Tested on: DeltatarO mutant
Test: S. aureus survival, RN4220 and DeltatarO strains – OD600, teichoic acid synthesis inhibitors, primary screen (AID 463173)
Measurement context: S. aureus RN4220 wild type/DeltatarO growth, OD600, 18 h, hits give low values, screened at 18.75 µg/mL (by protocol)
The campaign covered roughly 52,000 compounds. About 4,300 (8.3%) were called active. What follows is part of a selection rich in actives, with near analogues and random picks from the rest.
Endpoint label: survival (%)

> print(dat)
                                    compound  measurement.unit  data.value
 1  CCN(CC)c1ccc(C2Nc3ccccc3-c3cc(C)nn32)cc1 (configuration not stated)                 %           7
 2   O=C(NCc1ccccc1)c1cc2sccc2n1Cc1ccc(F)cc1                 %          88
 3  Oc1c(C(c2ccc(Cl)cc2Cl)N2CCCC2)sc2nc(-c3ccco3)nn12 (configuration not stated)                 %          68
 4      Cn1c(-c2cccc(Br)c2)cnc1NCc1cccc(F)c1                 %          28
 5  Cc1ccc(N2C(=O)CCSC23C(=O)N(Cc2ccccc2)c2ccccc23)cc1 (configuration not stated)                 %          89
 6  O=C(Nc1c(Cl)cccc1Cl)c1cccc2c1C(=O)N(C1CCCCC1)C2                 %          78
 7  CCOC(=O)c1cc2occc2n1C(C)C(=O)OCC (configuration not stated)                 %          80
 8  Cc1cc(C)cc(NC(=O)c2cccc3c2C(=O)N(C2CCCCC2)C3)c1                 %          33
 9  COC(=O)c1cc2sc(Cl)cc2n1Cc1nc(-c2ccccc2C)oc1C                 %          78
10  COC(=O)c1ccc(NC(=O)c2cccc3c2C(=O)N(C2CCCCC2)C3)cc1                 %          80
11      Cn1nnnc1SCCCNCc1ccc(-c2ccc(Br)cc2)o1                 %          32
12  Cc1ccc(NC(=O)/C(C#N)=C/c2cn(CC(=O)NCc3ccco3)c3ccccc23)cc1Cl                 %          64
13              CCCCSc1nnc2[nH]c(=O)cc(C)n12                 %          99
14  CCOC(=O)c1ccc2c(c1)N(C(CC)C(=O)Nc1ccccc1OC)C(=O)c1ccccc1S2 (configuration not stated)                 %         101
15  CC(C)c1ccc(NC(=O)c2cccc3c2C(=O)N(C2CCCCC2)C3)cc1                 %         -10
16      Cn1c(-c2ccccc2)cnc1NC(=O)c1ccc(F)cc1                 %          81
17  COc1cc(OC)c(C2Nc3c(C)cccc3-c3cc(C)nn32)cc1OC (configuration not stated)                 %         184
18       Oc1ccc(-c2nnc(SCc3ccc(Cl)cc3)o2)cc1                 %          89
19  O=C(O)c1ccccc1C(=O)N1CCC(C(=O)c2ccccc2)CC1                 %         104
20  CCOC(=O)C1=C(CN2CCN(c3ccc(Cl)cc3)CC2)NC(=O)NC1c1ccc(F)cc1 (configuration not stated)                 %          70
21  CCOC(=O)c1scc(-c2ccc(C)cc2)c1S(=O)(=O)N1CCN(c2ccccc2)CC1                 %          73
22  Cc1cc2n(n1)C(c1ccccc1)Nc1ccccc1-2 (configuration not stated)                 %          93
